Source: ChEMBL document CHEMBL3988442

Reported Percent Effect is given for each of the following compounds.
systemName: ClpP1P2 (Mycobacterium tuberculosis (strain ATCC 25618 / H37Rv)) (UniProt P9WPC5+P9WPC3)
experimentalProtocol: in vitro assay to detect presence of AMC directly proportional to the activity of ClpP1P2. GHDDI collaboration.
Assay type: functional
Set-up: scale not given: direction of the effect not stated beside the values
conditionParameters: 50 µM
Screen size: about 69,000 compounds; about 10 (0.01%) showed an effect of 50% or more. Many of the other results were omitted from the sample, so strong results are more common in it than they were.
The figure you give is taken to be in %; do not add the unit.

Known Percent Effect results, listed for orientation:
{"columns": ["compound", "systemName", "Percent Effect, %"],
 "data": [
  ["COCC(=O)N1C[C@H](N(C)Cc2cncnc2)[C@H]2OCCC[C@H]21", "ClpP1P2 (Mycobacterium tuberculosis (strain ATCC 25618 / H37Rv)) (UniProt P9WPC5+P9WPC3)", 3.58],
  ["CCS(=O)(=O)N1CCC[C@]2(C(=O)N(C)C)CN(c3ncccn3)C[C@@H]2C1", "ClpP1P2 (Mycobacterium tuberculosis (strain ATCC 25618 / H37Rv)) (UniProt P9WPC5+P9WPC3)", 5.41],
  ["Cc1ccc([C@]2(O)CC[C@H]3CN(Cc4ccncc4)C[C@H]32)nc1", "ClpP1P2 (Mycobacterium tuberculosis (strain ATCC 25618 / H37Rv)) (UniProt P9WPC5+P9WPC3)", 23.9],
  ["Cc1ncccc1NC(=O)[C@H]1C[C@@H]2CCN(Cc3ccsc3)C[C@H]2O1", "ClpP1P2 (Mycobacterium tuberculosis (strain ATCC 25618 / H37Rv)) (UniProt P9WPC5+P9WPC3)", -3.15]
]}

Enquiry: What value of measured Percent Effect is listed for `Cc1cnc(CNC(=O)[C@@H]2CC[C@@H]3[C@@H](CCN3Cc3ccco3)O2)cn1` ?
Return: -0.464

Enquiry: What value of measured Percent Effect is listed for `Cn1cc(C(=O)NC[C@H]2OC[C@@H]3CCN(C4CCOCC4)C[C@@H]32)cn1` ?
Return: -8.58

Enquiry: What value of measured Percent Effect is listed for `COCCN1C[C@H]2CC[C@@H]1CN(C(=O)c1ccc(Cl)cc1)C2` ?
Return: 2.81

Enquiry: What value of measured Percent Effect is listed for `COCCN1CCN(C(=O)c2ccccc2C(C)=O)[C@H]2CS(=O)(=O)C[C@H]21` ?
Return: -4.44

Enquiry: What value of measured Percent Effect is listed for `C[C@H]1C[C@H]2CN(C(=O)CCOc3ccccc3)CC[C@H]2O1` ?
Return: 5.83

Enquiry: What value of measured Percent Effect is listed for `CCSCCNC(=O)c1ccc(S(=O)(=O)N2C[C@@H]3C[C@H]2CN3)cc1` ?
Return: 9.91

Enquiry: What value of measured Percent Effect is listed for `O=C(c1ccnnc1)N1CCN2C[C@H](OCc3ccccn3)C[C@H]2C1` ?
Return: 0.376

Enquiry: What value of measured Percent Effect is listed for `O=C(Nc1cnccn1)[C@@H]1CCO[C@@H]2CCN(Cc3ccsc3)C[C@@H]21` ?
Return: -0.52

Enquiry: What value of measured Percent Effect is listed for `CC(C)NC(=O)N1CCC2(CC1)CC[C@@]1(C(=O)N(C)C)CN(C)C[C@@H]21` ?
Return: -5.9

Enquiry: What value of measured Percent Effect is listed for `O=C(NCCc1cccs1)[C@]12COC[C@H]1CN(Cc1ccccn1)C2` ?
Return: 21.1

* * *

systemName: ClpP1P2 (Mycobacterium tuberculosis (strain ATCC 25618 / H37Rv)) (UniProt P9WPC5+P9WPC3)
experimentalProtocol: in vitro assay to detect presence of AMC directly proportional to the activity of ClpP1P2. GHDDI collaboration.
Assay type: functional
Design: scale not given: direction of the effect not stated beside the values
conditionParameters: 50 µM
Out of some 69,000 compounds screened, about 10 (0.01%) showed an effect of 50% or more. What follows is part of a selection rich in strong results, with near analogues and random picks from the rest.
readoutName: Percent Effect (%)
The figure you give is taken to be in %; do not add the unit.

Known Percent Effect results, listed for orientation:
{"columns": ["molecule", "unitSpec", "Percent Effect"],
 "data": [
  ["CN(C)C(=O)N1CC[C@H]2[C@H]1CCN2c1nncs1", "%", -2.44],
  ["Cc1nc(-c2ccc(CC(=O)N3CCN(C(=O)C4CC4)CC3)cc2)cs1", "%", 7.62],
  ["CCC1=N[C@@]2(CC[C@@H]3CN(S(=O)(=O)CC)C[C@@H]32)C(=O)N1CC", "%", -9.65],
  ["Cc1cccc2nc(C(=O)N3CCCC[C@]4(C)NC(=O)CCC[C@H]34)cn12", "%", -8.66],
  ["CN(C[C@H]1CN2CC[C@H]1C[C@@H]2CNC(=O)c1ccco1)c1ccccc1", "%", 3.33]
]}

Enquiry: Lab note: need Percent Effect with ClpP1P2 (Mycobacterium tuberculosis (strain ATCC 25618 / H37Rv)) (UniProt P9WPC5+P9WPC3) for entry `CC(=O)N1[C@H](Cn2cncn2)C[C@@H]2CN(Cc3ccccn3)CC[C@@H]21` , please look it up.
Return: -7.75

Enquiry: Lab note: need Percent Effect with ClpP1P2 (Mycobacterium tuberculosis (strain ATCC 25618 / H37Rv)) (UniProt P9WPC5+P9WPC3) for entry COc1ccc(CN2CCCC2)cc1Oc1ccc2c(c1)CC(CN)O2 (configuration not stated) , please look it up.
Return: -30

Enquiry: Lab note: need Percent Effect with ClpP1P2 (Mycobacterium tuberculosis (strain ATCC 25618 / H37Rv)) (UniProt P9WPC5+P9WPC3) for entry `CC1=CC[C@@H]2CN(C(=O)c3ccc(-c4nc[nH]n4)cc3)C[C@@H]2C1` , please look it up.
Return: -12.9

* * *

systemName: ClpP1P2 (Mycobacterium tuberculosis (strain ATCC 25618 / H37Rv)) (UniProt P9WPC5+P9WPC3)
experimentalProtocol: in vitro assay to detect presence of AMC directly proportional to the activity of ClpP1P2. GHDDI collaboration.
Format: functional
Design: scale not given: direction of the effect not stated beside the values
conditionParameters: 50 µM
The whole screen tested about 69,000 compounds, of which about 10 (0.01%) showed an effect of 50% or more. This excerpt belongs to a sample that is enriched for strong results.
readoutName: Percent Effect (%)
The figure you give is taken to be in %; do not add the unit.

{"columns": ["molecule", "systemName", "experimentalResult"],
 "data": [
  ["c1ccc(CO[C@H]2C[C@@H]3CN(Cc4cncnc4)C[C@@H]3C2)cc1", "ClpP1P2 (Mycobacterium tuberculosis (strain ATCC 25618 / H37Rv)) (UniProt P9WPC5+P9WPC3)", -9.01],
  ["CN(C)S(=O)(=O)N1CC[C@]2(O)CCN(Cc3cccc(C#N)c3)C[C@@H]2C1", "ClpP1P2 (Mycobacterium tuberculosis (strain ATCC 25618 / H37Rv)) (UniProt P9WPC5+P9WPC3)", -12.9],
  ["O=C(CN1C[C@H]2CC[C@@H]1CN(Cc1ccccn1)C2)Nc1ccccc1", "ClpP1P2 (Mycobacterium tuberculosis (strain ATCC 25618 / H37Rv)) (UniProt P9WPC5+P9WPC3)", -28.1],
  ["O=C(c1ccoc1)N1CCO[C@@H]2CNC[C@@H]21", "ClpP1P2 (Mycobacterium tuberculosis (strain ATCC 25618 / H37Rv)) (UniProt P9WPC5+P9WPC3)", -6.03],
  ["N#Cc1ccccc1CN1C[C@@H]2CC[C@H](C1)N(CC1CC1)C2=O", "ClpP1P2 (Mycobacterium tuberculosis (strain ATCC 25618 / H37Rv)) (UniProt P9WPC5+P9WPC3)", -3.85],
  ["CC(C)CN1C(=O)CC[C@H]2CN(Cc3ncc[nH]3)CC[C@H]21", "ClpP1P2 (Mycobacterium tuberculosis (strain ATCC 25618 / H37Rv)) (UniProt P9WPC5+P9WPC3)", -3.16],
  ["Fc1cnc(N2CCO[C@H]3[C@H](OCCN4CCCC4)CC[C@@H]32)nc1", "ClpP1P2 (Mycobacterium tuberculosis (strain ATCC 25618 / H37Rv)) (UniProt P9WPC5+P9WPC3)", -0.916],
  ["CC(C)NC(=O)[C@H]1C[C@@H]2[C@@H](C1)OCCN2Cc1nccs1", "ClpP1P2 (Mycobacterium tuberculosis (strain ATCC 25618 / H37Rv)) (UniProt P9WPC5+P9WPC3)", -14.4],
  ["CCCc1nc(N2CCCN3CCC[C@H]3C2)c2cnn(C)c2n1", "ClpP1P2 (Mycobacterium tuberculosis (strain ATCC 25618 / H37Rv)) (UniProt P9WPC5+P9WPC3)", 7.09],
  ["Cc1ccccc1CN1C[C@@H](C(=O)N2CCCCO2)C[C@H]2OCC[C@H]21", "ClpP1P2 (Mycobacterium tuberculosis (strain ATCC 25618 / H37Rv)) (UniProt P9WPC5+P9WPC3)", -6.2]
]}

Enquiry: What value of measured Percent Effect is listed for `O=C(c1cccnc1)N1C[C@@H]2OCCN(CCN3CCCC3)[C@@H]2C1` ?
Return: 4.78

Enquiry: What value of measured Percent Effect is listed for Cn1ccnc1CN1CCO[C@H]2C(CNC(=O)c3ccco3)CC[C@@H]21 (some centres undefined) ?
Return: 0.912

Enquiry: What value of measured Percent Effect is listed for `Cc1nc(CN2CCO[C@@H]3CN(Cc4ccccn4)CC[C@@H]3C2)cs1` ?
Return: -1.41

Enquiry: What value of measured Percent Effect is listed for `COc1ccc(N2CCN(C(=O)[C@H]3[C@@H]4CNC[C@@H]43)CC2(C)C)cc1` ?
Return: -7.82

Enquiry: What value of measured Percent Effect is listed for `Cc1ncsc1CN1C[C@@H](OCC(=O)N(C)C)[C@H]2OCCC[C@H]21` ?
Return: -2.89

Enquiry: What value of measured Percent Effect is listed for `O=C(c1ncccn1)N1C[C@@H]2CC[C@H](Oc3cccc(F)c3)[C@@H]2C1` ?
Return: -9.72

Enquiry: What value of measured Percent Effect is listed for NCC1Cc2cc(Oc3cc(F)c(CN4CCCC4)c(F)c3)ccc2O1 (centres undefined) ?
Return: 72.6

Enquiry: What value of measured Percent Effect is listed for `Cc1nn(C)c(C)c1S(=O)(=O)N1C[C@@H]2C[C@@H](C)O[C@@H]2C1` ?
Return: -4.66

Enquiry: What value of measured Percent Effect is listed for `CCCS(=O)(=O)N1C[C@@H]2CN(Cc3ccoc3)CCO[C@@H]2C1` ?
Return: 2.92
